Attribution: PubChem BioAssay (NCATS)

- method-notes: Stat Signaling Pathway (AID 446);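 also: ME-180 cervical cancer cells given 40 pM IL-6 alongside compound; SIE-controlled beta-lactamase reporter measured as 460/530 nm FRET emission ratio; % is scaled to controls: 0 for no effect and ±100 for the full control effect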
- particulars: ME-180 (cervical carcinoma) SIE beta-lactamase reporter, IL-6 stimulated, 5 h; at 17.2 µM (top of the series) unless noted
Inconclusive results are not listed.
Attribute: activity, negative = inhibition

# molecule, unit-abbreviation, activity, negative = inhibition
records = [
    ("CCN(CC)CC#CCOC(=O)C(O)(c1ccccc1)C1CCCCC1 (stereo unspecified)", "%", 0.633),
    ("C1CCC(C(CC2CCCCN2)C2CCCCC2)CC1 (stereo unspecified)", "%", 5.25),
    ("CC[C@H](C)C(=O)O[C@H]1C[C@@H](C)C=C2C=C[C@H](C)[C@H](CC[C@@H]3C[C@@H](O)CC(=O)O3)[C@H]21", "%", -3.85),
    ("O=C(O)c1cccnc1", "%", 3.94),
    ("N[C@@H](C(=O)N[C@@H]1C(=O)N2C(C(=O)O)=C(Cl)CS[C@H]12)c1ccccc1", "%", 1.22),
    ("Cn1c(=O)c2c(ncn2CC(O)CO)n(C)c1=O (stereo unspecified)", "%", 1.2),
]

###

- method-notes: qHTS of pediatric cancer cell lines to identify multiple opportunities for drug repurposing: Primary screen for NB-EBc1 cells (AID 1347095)
- particulars: NB-EBc1 neuroblastoma viability, CellTiter-Glo luminescence, 48 h; series mostly up to 46 µM
Results filed as inconclusive are left out. Activity calls are given as the source filed them. Calls follow the shape of the dose curve; as a rule, active = well fitted cell-killing curve with a large enough effect; inconclusive = small, poorly fitted or top-dose-only effect; inactive = no such curve, though single readings can be large or run the other way.
Labels: active, inactive

# compound, class-label
rows = [
    ("COCCCOc1cc(C[C@@H](C[C@H](N)[C@@H](O)C[C@H](C(=O)NCC(C)(C)C(N)=O)C(C)C)C(C)C)ccc1OC", "inactive"),
    ("S=P(N1CC1)(N1CC1)N1CC1", "active"),
    ("NC(=O)c1cccc(N)c1", "inactive"),
    ("C1CCC(C(CC2CCCCN2)C2CCCCC2)CC1 (stereo unspecified)", "active"),
    ("N[C@@H](C(=O)N[C@@H]1C(=O)N2C(C(=O)O)=C(Cl)CS[C@H]12)c1ccccc1", "inactive"),
    ("C[C@@H](NCCCc1cccc(C(F)(F)F)c1)c1cccc2ccccc12", "inactive"),
    ("CCCc1cc(C(N)=S)ccn1", "inactive"),
    ("NC(=O)c1ccc2[nH]ccc2c1", "inactive"),
    ("O=C(O)c1ccc(-n2nc(-c3ccccc3O)nc2-c2ccccc2O)cc1", "active"),
    ("NS(=O)(=O)c1cc2c(cc1Cl)NC(C(Cl)Cl)NS2(=O)=O (stereo unspecified)", "inactive"),
    ("CCOC(=O)c1ccc(OC(=O)CCCCCN=C(N)N)cc1", "inactive"),
    ("CC(=O)[C@H]1CC[C@H]2[C@@H]3CCC4=CC(=O)CC[C@]4(C)[C@H]3CC[C@]12C", "inactive"),
    ("CCn1cc(C(=O)O)c(=O)c2cc(F)c(N3CCNCC3)nc21", "inactive"),
    ("COc1cc2c(Nc3ccc(Br)cc3F)ncnc2cc1OCC1CCN(C)CC1", "inactive"),
    ("CC(C)C1CCC(C(=O)N[C@H](Cc2ccccc2)C(=O)O)CC1 (stereo partly specified)", "inactive"),
    ("CC(C(=O)O)c1ccc2c(c1)CC(=O)c1ccccc1S2 (stereo unspecified)", "inactive"),
    ("CCCN[C@H]1CCc2nc(N)sc2C1", "inactive"),
    ("COc1ncnc(NS(=O)(=O)c2ccc(N)cc2)c1OC", "inactive"),
    ("COC(c1ccccc1)(c1ccccc1)[C@H](Oc1nc(C)cc(C)n1)C(=O)O", "inactive"),
    ("CC(C)(Sc1cc(C(C)(C)C)c(O)c(C(C)(C)C)c1)Sc1cc(C(C)(C)C)c(O)c(C(C)(C)C)c1", "inactive"),
    ("CCCCOc1ccc(CC(=O)NO)cc1", "active"),
    ("CC(=O)CC(c1ccccc1)c1c(O)c2ccccc2oc1=O (stereo unspecified)", "inactive"),
    ("COC(=O)Nc1nc2ccc(Sc3ccccc3)cc2[nH]1", "active"),
    ("OC(Cn1cncn1)(Cn1cncn1)c1ccc(F)cc1F", "inactive"),
    ("CC(N)C12CC3CC(CC(C3)C1)C2 (stereo unspecified)", "inactive"),
    ("C[C@@H](CN1CC(=O)NC(=O)C1)N1CC(=O)NC(=O)C1", "active"),
    ("CCC(=O)O[C@]1(C(=O)CCl)[C@@H](C)C[C@H]2[C@@H]3CCC4=CC(=O)C=C[C@]4(C)[C@@]3(F)[C@@H](O)C[C@@]21C", "inactive"),
    ("Nc1nc(=S)c2[nH]cnc2[nH]1", "active"),
    ("CCCOc1ccc(C(=O)OCCN(CC)CC)cc1N", "inactive"),
    ("O=C(N[C@H](CO)[C@H](O)c1ccc([N+](=O)[O-])cc1)C(Cl)Cl", "inactive"),
    ("CCn1cc(C(=O)O)c(=O)c2cc(F)c(N3CCNCC3)cc21", "inactive"),
    ("CCOC(=O)c1ccc(C#Cc2ccc3c(c2)C(C)(C)CCS3)nc1", "inactive"),
    ("Cc1ncc([N+](=O)[O-])n1CCO", "inactive"),
    ("CC(C)(C#N)c1cc(Cn2cncn2)cc(C(C)(C)C#N)c1", "inactive"),
    ("O=C(O)C1CCCN(CCC=C(c2ccccc2)c2ccccc2)C1 (stereo unspecified)", "inactive"),
    ("Cn1c(=O)c2c(ncn2CC(O)CO)n(C)c1=O (stereo unspecified)", "inactive"),
    ("COc1cc2nc(N3CCCN(C)CC3)nc(NC3CCN(Cc4ccccc4)CC3)c2cc1OC", "active"),
    ("CCN1CCCC1CNC(=O)c1cc(S(N)(=O)=O)ccc1OC (stereo unspecified)", "inactive"),
    ("CCOCC(O)COc1ccc(NC(=O)CC[S+](C)C)cc1 (stereo unspecified)", "inactive"),
    ("COc1ccc(-c2ccc3cc(C(=O)O)ccc3c2)cc1C12CC3CC(CC(C3)C1)C2", "active"),
    ("O=S(=O)(c1cccc2cnccc12)N1CCCNCC1", "inactive"),
]
